# target-system: UniProt Q8NER1
# Sequence (Q8NER1 whole entry): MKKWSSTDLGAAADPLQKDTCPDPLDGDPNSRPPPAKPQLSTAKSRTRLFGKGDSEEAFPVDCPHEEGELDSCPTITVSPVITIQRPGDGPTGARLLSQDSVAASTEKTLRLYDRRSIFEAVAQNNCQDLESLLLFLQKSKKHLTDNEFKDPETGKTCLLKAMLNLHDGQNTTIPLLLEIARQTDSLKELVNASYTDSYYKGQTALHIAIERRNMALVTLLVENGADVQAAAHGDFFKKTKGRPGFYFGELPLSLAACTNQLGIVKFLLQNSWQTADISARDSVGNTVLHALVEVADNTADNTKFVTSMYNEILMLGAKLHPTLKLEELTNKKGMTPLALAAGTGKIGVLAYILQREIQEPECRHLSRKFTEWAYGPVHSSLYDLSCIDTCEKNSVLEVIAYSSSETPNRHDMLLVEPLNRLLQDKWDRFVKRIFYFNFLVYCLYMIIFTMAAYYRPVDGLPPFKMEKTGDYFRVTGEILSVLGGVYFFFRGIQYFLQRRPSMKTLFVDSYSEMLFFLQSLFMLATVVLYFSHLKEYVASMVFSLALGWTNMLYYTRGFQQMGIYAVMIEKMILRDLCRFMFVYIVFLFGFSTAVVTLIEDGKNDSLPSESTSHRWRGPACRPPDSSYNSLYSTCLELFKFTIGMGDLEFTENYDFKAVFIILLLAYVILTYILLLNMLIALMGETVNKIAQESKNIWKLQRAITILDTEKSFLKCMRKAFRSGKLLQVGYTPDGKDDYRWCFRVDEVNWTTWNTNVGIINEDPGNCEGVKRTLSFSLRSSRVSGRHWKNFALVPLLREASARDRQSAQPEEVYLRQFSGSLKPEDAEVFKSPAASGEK
# assay-notes: Inhibition of pH-induced activation of VR1
# Assay type: cell-based
# condition-notes: mean ± spread, (n) = number of experiments, read-out: Inhibition of pH-induced activation IC50 (nM) Mean IC50 ± SEC (n)
reported-property: IC50
Remember to put the unit after the number in your answer.

Give the value of IC50 reported for the following: `CC(C)c1ccc(NC(=O)N2CCN(c3nsnc3Cl)CC2)cc1`
668 nM
